In this section we review reported Kd values for a set of sequences.
Target: HLA-A*02:12
Experiment: IEDB peptide-MHC binding, purified MHC/direct/fluorescence; filed as Kd, often an IC50 or EC50 that approximates it; bounds were set here for any values at or beyond the usual limits of such assays
Settings: source organism: Choclo virus

What value of Kd has been recorded for this entry: `HTVGLGQGY`
≥ 20 µM

Turning now to a further record.
Consider the sequence shown here: `FSLPSSSSY` What is its recorded Kd?
≥ 20 µM

* * *

Target: HLA-A*11:01
Assay: IEDB peptide-MHC binding, purified MHC/direct/fluorescence; filed as Kd, often an IC50 or EC50 that approximates it; bounds were set here for any values at or beyond the usual limits of such assays
Conditions: source organism: Rickettsia felis
METRIC: Kd

Lab note: need Kd for `GSFKEYVFW` on HLA-A*11:01, anyone have it?
≥ 20 µM
